# credit: patent US9505780B2

Examples of compounds with documented IC50 follow.
- Target Desc: UniProtKB P42338
- Sequence (P42338 whole entry, canonical isoform): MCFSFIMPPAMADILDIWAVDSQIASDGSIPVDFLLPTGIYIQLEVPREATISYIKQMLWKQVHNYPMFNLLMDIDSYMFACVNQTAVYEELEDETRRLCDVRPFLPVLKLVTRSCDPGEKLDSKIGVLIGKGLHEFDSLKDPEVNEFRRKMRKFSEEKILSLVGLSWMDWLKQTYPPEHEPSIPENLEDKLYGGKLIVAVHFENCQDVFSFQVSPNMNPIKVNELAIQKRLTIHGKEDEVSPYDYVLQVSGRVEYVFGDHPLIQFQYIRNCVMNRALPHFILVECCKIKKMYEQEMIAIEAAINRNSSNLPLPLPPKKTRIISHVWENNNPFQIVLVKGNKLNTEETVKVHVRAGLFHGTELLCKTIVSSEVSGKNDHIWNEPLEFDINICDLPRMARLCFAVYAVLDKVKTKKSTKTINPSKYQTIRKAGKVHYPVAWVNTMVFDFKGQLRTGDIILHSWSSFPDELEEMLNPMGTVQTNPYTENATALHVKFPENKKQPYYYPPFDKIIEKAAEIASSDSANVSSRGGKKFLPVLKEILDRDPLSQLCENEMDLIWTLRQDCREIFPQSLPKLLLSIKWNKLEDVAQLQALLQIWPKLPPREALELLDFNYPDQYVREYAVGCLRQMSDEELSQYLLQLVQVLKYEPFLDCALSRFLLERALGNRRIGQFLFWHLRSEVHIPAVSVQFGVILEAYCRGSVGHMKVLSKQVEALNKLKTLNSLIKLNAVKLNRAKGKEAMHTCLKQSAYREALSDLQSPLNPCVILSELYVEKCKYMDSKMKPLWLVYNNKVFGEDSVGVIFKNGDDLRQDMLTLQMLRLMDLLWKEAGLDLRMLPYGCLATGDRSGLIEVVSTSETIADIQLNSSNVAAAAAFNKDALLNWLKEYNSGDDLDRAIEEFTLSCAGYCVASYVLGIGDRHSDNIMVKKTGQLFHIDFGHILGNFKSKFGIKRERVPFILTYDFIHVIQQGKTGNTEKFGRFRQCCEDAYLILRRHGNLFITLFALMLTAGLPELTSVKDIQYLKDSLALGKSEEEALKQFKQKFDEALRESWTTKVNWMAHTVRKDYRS
- Sequence (P27986 whole entry partner, canonical isoform): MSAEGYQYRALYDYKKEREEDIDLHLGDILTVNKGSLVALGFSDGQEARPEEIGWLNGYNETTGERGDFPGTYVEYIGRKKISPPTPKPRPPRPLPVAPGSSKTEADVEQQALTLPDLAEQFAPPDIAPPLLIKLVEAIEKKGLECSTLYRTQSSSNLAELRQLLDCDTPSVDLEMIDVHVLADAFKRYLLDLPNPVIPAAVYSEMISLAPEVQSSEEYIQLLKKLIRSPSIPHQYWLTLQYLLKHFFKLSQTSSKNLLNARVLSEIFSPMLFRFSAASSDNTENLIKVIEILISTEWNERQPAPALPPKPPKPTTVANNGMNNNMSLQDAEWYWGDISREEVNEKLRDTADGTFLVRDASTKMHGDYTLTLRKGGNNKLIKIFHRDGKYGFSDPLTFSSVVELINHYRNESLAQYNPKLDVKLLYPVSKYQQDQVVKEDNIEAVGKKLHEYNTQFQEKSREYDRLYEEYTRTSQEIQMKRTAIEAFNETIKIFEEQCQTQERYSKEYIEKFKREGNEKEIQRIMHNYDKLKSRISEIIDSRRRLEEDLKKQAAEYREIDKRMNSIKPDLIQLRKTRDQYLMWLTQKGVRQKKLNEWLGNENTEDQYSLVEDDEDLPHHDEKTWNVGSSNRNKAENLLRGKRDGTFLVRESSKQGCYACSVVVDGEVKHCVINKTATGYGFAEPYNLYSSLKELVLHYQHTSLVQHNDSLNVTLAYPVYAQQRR
- Assay Info: PI3K beta isoform inhibition
Readout Type: IC50 (nM)

>>> value_observed("COC(=O)c1ccc(-c2csc3c(=O)cc(N4CCOCC4)oc23)cc1 [Cmpd 44]")
3600
>>> value_observed("O=c1cc(N2CCOCC2)oc2c(-c3ccc4c(c3)OCCO4)csc12 [Cmpd 28]")
214
>>> value_observed("CCOC(=O)c1ccc(-c2csc3c(=O)cc(N4CCOCC4)oc23)cc1 [Cmpd 25]")
1750
>>> value_observed("O=c1cc(N2CCOCC2)oc2c(-c3ccccc3)csc12 [Cmpd 6]")
378
>>> value_observed("O=c1cc(N2CCOCC2)oc2ccsc12 [Cmpd 10]")
9250

---

The entries below are paired with their reported log10(IC50).
- Target Desc: PI3Kδ (Homo sapiens (Human))
- Sequence (O00329 whole entry, canonical isoform): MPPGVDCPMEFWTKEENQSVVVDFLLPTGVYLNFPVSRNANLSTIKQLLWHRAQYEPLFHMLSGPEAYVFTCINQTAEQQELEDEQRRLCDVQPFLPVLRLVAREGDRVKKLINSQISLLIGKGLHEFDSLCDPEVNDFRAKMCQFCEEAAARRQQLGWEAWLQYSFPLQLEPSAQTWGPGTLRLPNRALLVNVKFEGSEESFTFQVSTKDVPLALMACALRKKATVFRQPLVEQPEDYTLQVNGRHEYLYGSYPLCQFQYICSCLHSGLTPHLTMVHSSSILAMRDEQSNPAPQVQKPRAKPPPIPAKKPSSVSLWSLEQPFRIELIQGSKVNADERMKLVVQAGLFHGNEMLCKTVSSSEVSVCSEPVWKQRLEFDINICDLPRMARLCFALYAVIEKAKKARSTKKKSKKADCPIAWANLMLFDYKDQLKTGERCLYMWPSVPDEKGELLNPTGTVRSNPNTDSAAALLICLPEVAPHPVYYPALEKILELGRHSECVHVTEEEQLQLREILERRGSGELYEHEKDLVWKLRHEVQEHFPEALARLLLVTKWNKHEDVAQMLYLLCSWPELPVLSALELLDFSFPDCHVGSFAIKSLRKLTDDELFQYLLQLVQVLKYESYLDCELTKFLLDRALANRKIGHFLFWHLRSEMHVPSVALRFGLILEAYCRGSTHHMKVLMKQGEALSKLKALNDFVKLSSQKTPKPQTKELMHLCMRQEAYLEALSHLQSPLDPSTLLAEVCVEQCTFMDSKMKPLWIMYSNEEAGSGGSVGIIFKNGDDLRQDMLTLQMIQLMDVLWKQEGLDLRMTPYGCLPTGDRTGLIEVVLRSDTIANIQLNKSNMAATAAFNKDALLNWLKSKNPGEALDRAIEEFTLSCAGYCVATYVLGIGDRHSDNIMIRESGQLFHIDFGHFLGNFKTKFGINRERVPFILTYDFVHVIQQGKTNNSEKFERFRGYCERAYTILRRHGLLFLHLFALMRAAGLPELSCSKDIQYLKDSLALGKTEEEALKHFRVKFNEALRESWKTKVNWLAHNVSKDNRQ
- Sequence (P27986 whole entry partner, canonical isoform): as the sequence (P27986 whole entry partner, canonical isoform) above
- Assay Info: PI3K delta isoform inhibition
- Assay type: biochemical
Readout Type: log10(IC50) (log10 of the value in nM)

>>> value_observed("O=c1cc(N2CCSCC2)oc2c(Br)csc12 [Cmpd 127]")
3.52
>>> value_observed("O=C(O)c1ccc(-c2csc3c(=O)cc(N4CCOCC4)oc23)cc1 [Cmpd 100]")
2.47
>>> value_observed("O=c1cc(N2CCOCC2)oc2c(-c3ccc4c(c3)OCCO4)csc12 [Cmpd 28]")
2.98
>>> value_observed("O=C(Nc1ccc(-c2csc3c(=O)cc(N4CCOCC4)oc23)cc1)c1ccncc1 [Cmpd 120]")
1.32
>>> value_observed("O=C(NO)c1ccc(-c2csc3c(=O)cc(N4CCOCC4)oc23)cc1 [Cmpd 118]")
1.72
>>> value_observed("Nc1cccc(-c2csc3c(=O)cc(N4CCOCC4)oc23)c1 [Cmpd 11]")
3.99
>>> value_observed("COC(=O)c1ccc(-c2csc3c(=O)cc(N4CCOCC4)oc23)cc1 [Cmpd 44]")
1.08

---

- System: MYCN-dependent MB patient derived xenograft (PDX) cell line
- Assay Info: Cytotoxicity / proliferation study, alone and in combination
- Assay type: cell-based
Readout Type: IC50

>>> value_observed("Cc1sc2c(c1C)C(c1ccc(Cl)cc1)=N[C@@H](CC(=O)OC(C)(C)C)c1nnc(C)n1-2 [JQ-1]")
"2.2 µM"

---

# Lookup of reported pIC50 keyed by entry
- Target Desc: PI3Kδ (Homo sapiens (Human))
- Assay Info: PI3K delta isoform inhibition
pIC50: −log10 of the molar value.
Readout Type: pIC50

>>> value_observed("CCOC(=O)c1ccc(-c2csc3c(=O)cc(N4CCOCC4)oc23)cc1")
7.57
>>> value_observed("O=c1cc(N2CCSCC2)oc2c(-c3ccc4c(c3)OCCO4)csc12")
6.32
>>> value_observed("O=C(Nc1cccc(-c2csc3c(=O)cc(N4CCOCC4)oc23)c1)Nc1ccc(Cl)c(C(F)(F)F)c1")
5.01
>>> value_observed("O=c1cc(N2CCOCC2)oc2c(Br)csc12")
5.83
>>> value_observed("CC(C)(C)c1cc(NC(=O)Nc2cccc(-c3csc4c(=O)cc(N5CCOCC5)oc34)c2)no1")
5.87

---

- Target Desc: BRD4-1 (Homo sapiens (Human))
Define the label as Satisfied when IC50 is strictly less than 0.5 µM and as Not satisfied in all remaining cases.

>>> assigned_label("Nc1cccc(-c2csc3c(=O)cc(N4CCOCC4)oc23)c1")
"Not satisfied"
>>> assigned_label("O=C(O)c1ccc(-c2csc3c(=O)cc(N4CCOCC4)oc23)cc1")
"Not satisfied"
>>> assigned_label("O=c1cc(N2CCSCC2)oc2c(-c3ccc4c(c3)OCCO4)csc12")
"Not satisfied"
>>> assigned_label("O=c1cc(N2CCOCC2)oc2c(-c3ccccc3)cccc12")
"Not satisfied"
>>> assigned_label("O=c1cc(N2CCOCC2)oc2c(-c3ccc4c(c3)OCCO4)csc12")
"Satisfied"
>>> assigned_label("Cc1n[nH]c2cc(-c3csc4c(=O)cc(N5CCOCC5)oc34)ccc12")
"Satisfied"
